The entries below come with measured cytotoxicity values attached.
ASSAY SUMMARY: cytotoxicity in HPDE-C7 cells, cell-based, fluorescence, HTS (AID 430);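 also: cells exposed to compound for 48 hours before viability readout; 0% = vehicle and 100% = reference cytotoxic drug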
MEASUREMENT SETUP: HPDE-C7 pancreatic duct cells viability, at 10 µM, hits give high values
The campaign covered roughly 63,000 compounds. About 1,100 (1.7%) were called active. What follows is part of a selection rich in actives, with near analogues and random picks from the rest. Entries with a potency or affinity are not part of this list.

Solved cases below.
{"MOLECULE": "COc1ccc(-c2c(C#N)c(SCc3c(C)noc3C)nc3c2C(=O)CC(C)(C)C3)cc1", "cytotoxicity": "-11% (inactive)"}
{"MOLECULE": "O=C(CN1CCN(c2ccc(F)cc2)CC1)Nc1ccc(-n2cnnn2)cc1", "cytotoxicity": "16.2% (inactive)"}
{"MOLECULE": "COc1ccccc1NC(=O)c1nnn(Cc2ccccc2)c1NC(C)=O", "cytotoxicity": "2.6% (inactive)"}
{"MOLECULE": "C1=C(CCNc2ncnc3nc[nH]c23)CCCC1", "cytotoxicity": "0% (inactive)"}
{"MOLECULE": "CCN(CCN(C)C)C(=O)Cn1ncc2c1-c1cc(C)ccc1OC2", "cytotoxicity": "-7.1% (inactive)"}
{"MOLECULE": "Cc1c(C(=O)N(Cc2cccs2)C2CCS(=O)(=O)C2)oc2ccccc12 (stereo unspecified)", "cytotoxicity": "-22.1% (inactive)"}

Dear colleague, I am looking for the recorded cytotoxicity of the following molecule: COc1ccc(NC2c3ccccc3C(=O)N2Cc2ccco2)cc1OC (stereo unspecified)
17.8% (inactive)

For CN(C)C(=O)N1CCC(C(=O)NCc2ccc(F)cc2)CC1 , what is its reported cytotoxicity?
-10.1% (inactive)

I have this molecule here, COc1cccc(C2(O)CCN(C(=O)C3CCC3)CC2)c1 , and I need its recorded cytotoxicity.
-6.9% (inactive)

Quick check: cytotoxicity of CCn1cc(SCC(=O)NCc2ccc3c(c2)OCO3)c2ccccc21 ?
4.6% (inactive)

Would you kindly share the measured cytotoxicity for c1ccc(C(CN2CCOCC2)c2ccccc2)cc1 ?
-12% (inactive)

---

cytotoxicity: recorded values
ASSAY SUMMARY: cytotoxicity in HPDE-C7 cells, cell-based, fluorescence, HTS (AID 430)
MEASUREMENT SETUP: HPDE-C7 pancreatic duct cells viability, at 10 µM, hits give high values
Among all 63,000 compounds or so, about 1,100 (1.7%) were called active. This is one part of a sample in which actives are shown more often than they occur. Results with a measured potency or affinity are listed apart.
Write it as a number; the unit % goes unstated.

{"MOLECULE": "Cc1cccc(-c2nnc3n2N=C(c2ccccc2Br)CS3)c1", "UNIT SPEC": "%", "cytotoxicity": 15}
{"MOLECULE": "Fc1cccc(Cl)c1CSc1nnnn1-c1ccc2c(c1)OCO2", "UNIT SPEC": "%", "cytotoxicity": 53.7}
{"MOLECULE": "C=CCn1cnc2c(c1=O)c1nc3ccccc3nc1n2-c1ccccc1", "UNIT SPEC": "%", "cytotoxicity": 1.4}
{"MOLECULE": "Clc1ccc(-c2ccc(-c3nn4c(-c5ccco5)nnc4s3)o2)cc1", "UNIT SPEC": "%", "cytotoxicity": -11.9}
{"MOLECULE": "Fc1cccc(Cl)c1Cn1nnc(-c2ccc3c(c2)OCO3)n1", "UNIT SPEC": "%", "cytotoxicity": -6.1}

Look up cytotoxicity for this molecule: Cc1cc(C)n(-c2nnc3n2N=C(c2c[nH]c4ccccc24)CS3)n1
51.3

cytotoxicity for COc1ccccc1NC(=O)C1=C(C)Nc2ncnn2C1c1cccs1 (stereo unspecified) ?
3.3

cytotoxicity lookup needed for CCOc1ccc(C)cc1S(=O)(=O)NC1CCCCC1 , thanks.
4.3

What cytotoxicity value was documented for this molecule, CCCCCn1c(N(C)Cc2ccccc2)nc2c1c(=O)[nH]c(=O)n2C ?
-0.6

Entry Fc1ccc(-c2ccc(-c3nn4c(-c5ccco5)nnc4s3)o2)cc1 has what cytotoxicity?
73.5

What value of cytotoxicity has been reported for the following molecule? COC(=O)c1c(-c2ccc(F)cc2)noc1N
-23.1

---

ASSAY SUMMARY: cytotoxicity in HPDE-C7 cells, cell-based, fluorescence, HTS (AID 430);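 also: cells exposed to compound for 48 hours before viability readout; 0% = vehicle and 100% = reference cytotoxic drug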
MEASUREMENT SETUP: HPDE-C7 pancreatic duct cells viability, at 10 µM
In all, about 63,000 compounds went through this assay and about 1,100 (1.7%) were called active. Cut-off read from the data, not from the text of the source: active = cytotoxicity above about 50%; inactive = the rest. This excerpt belongs to a sample that is enriched for actives. Measured potencies and affinities stand elsewhere.
Choose one outcome from this list and give only that: y = active, n = inactive

Worked examples, 3 molecules total:
{"MOLECULE": "Cc1ccc(S(=O)(=O)n2nc(OC(=O)c3c(-c4ccccc4Cl)noc3C)cc2N)cc1", "ANSWER LABEL": "y"}
{"MOLECULE": "COc1ccccc1-c1nc(-c2cccc(C)c2)no1", "ANSWER LABEL": "n"}
{"MOLECULE": "CN(CCc1ccccn1)Cc1ccc(Cl)cc1", "ANSWER LABEL": "n"}

For CCOC(=O)c1cccc(NC(=O)CSc2nnc(-c3cccnc3)n2CC)c1 , what call appears in the results of this test?
n

Test call for this molecule, please: Cc1onc(-c2ccccc2Cl)c1C(=O)Oc1cc(N)n(S(=O)(=O)c2ccc(F)cc2)n1
n

Which result was noted for this molecule in the test: COc1ccc(-n2nnc3c(SCC(=O)NCC4CCCO4)ncnc32)cc1 (stereo unspecified)
n

Tell me the recorded outcome of this test for CC(NC(=O)Cc1ccsc1)c1ccc(S(N)(=O)=O)cc1 (stereo unspecified) .
n

Could you please tell me the result logged for COc1ccc(C(CNC(=O)Cc2cc(OC)c(OC)c(OC)c2)N2CCCC2)cc1 (stereo unspecified) in this assay?
n

---

ASSAY SUMMARY: cytotoxicity in HPDE-C7 cells, cell-based, fluorescence, HTS (AID 430);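 also: cells exposed to compound for 48 hours before viability readout; 0% = vehicle and 100% = reference cytotoxic drug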
MEASUREMENT SETUP: HPDE-C7 pancreatic duct cells viability, at 10 µM
The whole screen tested about 63,000 compounds, of which about 1,100 (1.7%) were called active. Rule as the data show it: active = cytotoxicity above about 50%; inactive = the rest. This is one part of a sample in which actives are shown more often than they occur. Entries with a potency or affinity are not part of this list.
Just give me one of these, please: active, inactive

{"COMPOUND": "Nc1c(S(=O)(=O)c2cccc(Cl)c2)c2nc3ccccc3nc2n1/N=C/c1ccc(O)c(O)c1", "ANSWER LABEL": "active"}
{"COMPOUND": "Cc1ccc(-n2nnc3c(=O)n(Cc4cccc(C)c4)cnc32)cc1", "ANSWER LABEL": "inactive"}
{"COMPOUND": "O=C(COC(=O)c1ccccc1NC(=O)c1ccco1)Nc1ccc2c(c1)OCO2", "ANSWER LABEL": "inactive"}
{"COMPOUND": "COc1cccc(-c2nc(CS(=O)CC(=O)NC3CC3)c(C)o2)c1 (stereo not given)", "ANSWER LABEL": "inactive"}
{"COMPOUND": "CN1/C(=C\\C(=O)C(F)F)C(C)(C)c2ccccc21", "ANSWER LABEL": "inactive"}
{"COMPOUND": "COc1ccc(NC(=O)N(CCC(C)C)C(C)c2ccccn2)c(OC)c1 (stereo not given)", "ANSWER LABEL": "inactive"}

Identify the outcome logged in this assay for the compound shown: COc1ccc(CCNC(=O)C2CCCN(S(=O)(=O)c3cccc4nonc34)C2)cc1OC (stereo not given)
inactive

Kindly provide the recorded test outcome for the following compound: Nc1c(S(=O)(=O)c2cccs2)c2nc3ccccc3nc2n1/N=C/c1cccc(O)c1
active

What did the test return for O=C(OCc1nc2ccccc2s1)C1CCN(C2=NS(=O)(=O)c3ccccc32)CC1 ?
inactive

Kindly provide the recorded test outcome for the following compound: CCOC(=O)C1CCCN(CCCc2ccccc2)C1 (stereo not given)
inactive

Hi, sorry to bother you, what did the test record for COc1ccc(CCNC(=O)CSc2nnnn2-c2ccccc2OC)cc1OC ?
inactive

GET /call?item= O=c1c2c3nc4ccccc4nc3n(/N=C/c3ccco3)c2ncn1CCC1=CCCCC1 returns the recorded outcome of this test.
inactive

# lookup: test call for O=C(Sc1nnnn1C1CCCCC1)c1cccs1
inactive

What classification did CC1CCCCC1NC(=O)CSc1nnc(COc2ccccc2Cl)o1 (stereo not given) end up with in this test?
inactive

Which outcome was entered for the compound Cc1ccc(C)c(S(=O)(=O)c2c(N)n(/N=C/c3ccco3)c3nc4ccccc4nc23)c1 in this test?
inactive

Check the results log: what was the call for Cn1ccnc1Sc1nnnn1-c1ccccc1 ?
inactive

# lookup: test call for CC(=O)C1=C(O)C(=O)N(Cc2ccco2)C1c1ccccc1 (stereo not given)
inactive

For this compound, state the assay outcome: c1ccc(-n2nnnc2SCCCSc2nc3ccccc3s2)cc1
inactive

Called result for COC(=O)c1ccc2c(c1)N(Cc1nc(-c3cccc(C)c3)oc1C)C(=O)C1CCCN21 (stereo not given)
active

---

ASSAY SUMMARY: cytotoxicity in HPDE-C7 cells, cell-based, fluorescence, HTS (AID 430);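 also: cells exposed to compound for 48 hours before viability readout; 0% = vehicle and 100% = reference cytotoxic drug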
MEASUREMENT SETUP: HPDE-C7 pancreatic duct cells viability, at 10 µM
Screen size: about 63,000 compounds; about 1,100 (1.7%) were called active. Cut-off read from the data, not from the text of the source: active = cytotoxicity above about 50%; inactive = the rest. For the sample, actives were picked, then their nearest neighbours and some compounds at random. Potency and affinity values are given separately.
In this exercise, the only acceptable responses are true (1) for active, false (0) for inactive

{"COMPOUND": "COc1ccc(C2CC(c3ccccc3)Nc3nc(NC(=O)c4cccs4)nn32)cc1 (stereo not drawn)", "ANSWER LABEL": "false (0)"}
{"COMPOUND": "CCCCCc1c(C)nc(Nc2nc(C)c3cc(OC)ccc3n2)[nH]c1=O", "ANSWER LABEL": "false (0)"}
{"COMPOUND": "Cc1ccc2nc(Nc3nc(=O)c4ccccc4n3C)nc(C)c2c1", "ANSWER LABEL": "false (0)"}
{"COMPOUND": "COc1ccc(NC(=O)CSc2nnc(-c3ccco3)n2C)cc1", "ANSWER LABEL": "false (0)"}
{"COMPOUND": "Cc1nnc(SCc2cc(=O)[nH]c(Nc3nc(C)c4ccccc4n3)n2)s1", "ANSWER LABEL": "false (0)"}

What outcome does the record of this test show for Cc1cccc2cc3c(nc12)SC(=NCC1CCCO1)N(Cc1ccco1)C3 (stereo not drawn) ?
true (1)

Identify the outcome logged in this assay for the compound shown: CC(=O)c1ccc(NC(=O)C2CCC(C)NC2=O)cc1 (stereo not drawn)
false (0)

In this assay, the call recorded for Cc1ccc(-n2c(SCC(N)=O)nnc2-c2cccnc2)c(C)c1 was what?
false (0)

Recorded call for Cc1nc(-c2ccccc2)cc(=O)[nH]1 ?
false (0)

Please let me know the test result on file for Cc1cc(C)nc(SCc2nnc(SCc3ccccc3Cl)o2)n1 .
false (0)

For Cc1ccc(Nc2nc(CSc3nnnn3-c3ccccc3)cs2)cc1 , what call appears in the results of this test?
false (0)

For COc1nc(Nc2nc3ccccc3c(=O)[nH]2)nc2ccc(C)cc12 , which call appears in the assay record?
true (1)

Which outcome was entered for the compound Cc1ccc2c(C)nc(Nc3nc(CSc4nnnn4-c4ccccc4)cc(=O)[nH]3)nc2c1 in this test?
true (1)

What outcome does the record of this test show for CC(NC(=O)NCCCn1ccnc1)(C(F)(F)F)C(F)(F)F ?
false (0)
